system: SN12C renal; test: NCI-60 one-dose screen, 48 h; settings: 10 µM unless noted
The panel holds about 83,000 compounds, 20% with a hit somewhere; the sample as a whole holds those more often. The source made the active and inactive calls. Rule for the calls: active = growth percent below 10; inactive = the rest.
Give one outcome, nothing more. List: active, inactive

Known results for compounds:
>  <compound>
COc1ccc(C/C(C)=C(/c2ccc(OCCN3CCCCCC3)cc2)c2ccc(OC(=O)NCc3ccccc3)cc2)cc1

>  <label.value>
inactive

$$$$
>  <compound>
COc1ccc(C2=CN3CC=CCC3CC2=O)cc1 (stereo not given)

>  <label.value>
inactive

$$$$
>  <compound>
COc1cc2nc(Nc3cccc(F)c3)nc(Nc3cc(C)[nH]n3)c2cc1OC

>  <label.value>
active

$$$$
>  <compound>
C=CC(=O)NCCOc1cccc(Nc2cc(NCCCNC(=O)C3CCC3)c(Br)cn2)c1

>  <label.value>
active

$$$$
>  <compound>
Cc1c2cnccc2c(C)c2c1c1cc(C3OCCCO3)ccc1n2C

>  <label.value>
active

$$$$
>  <compound>
CCCCSCC(=O)c1ccccc1

>  <label.value>
inactive

$$$$
>  <compound>
CN(C)c1ccc(/C=C/C(=O)c2ccc(Nc3nc(Nc4ccc(F)cc4)nc(Nc4ccc(Cl)cc4)n3)cc2)cc1

>  <label.value>
inactive

$$$$
>  <compound>
CCCNc1nc2ccccc2c2c(=O)c3cccc(Cl)c3sc12

>  <label.value>
inactive

$$$$

In: Dear colleague, could you share the recorded outcome for COC(c1ccc2ccccc2c1)C(C)C(F)F (stereo not given) when you have a moment?
Out: inactive

In: Which result was noted for this compound in the test: C[Se]C(=O)CC1=C2C=C(F)C=CC2/C(=C\c2ccc(S(C)=O)cc2)C1C (stereo not given)
Out: active

----------
growth values for the compounds below.
system: EKVX NSCLC; assay: NCI-60 one-dose screen, 48 h (100 = growth as untreated, 0 = no growth, -100 = all killed); conditions: 10 µM unless noted
The panel holds about 83,000 compounds, 20% with a hit somewhere; the sample as a whole holds those more often.
Please state the figure in %; there is no need to write the unit.

>  <molecule.smiles>
CCCNc1nc2ccccc2c2c(=O)c3cccc(Cl)c3sc12

>  <target.desc>
EKVX NSCLC

>  <readout.kind>
growth

>  <reported.measurement>
85.1

$$$$

In: Return reported growth; argument: COCCCOc1cc(C[C@@H](C[C@H](N)[C@@H](O)C[C@H](C(=O)NCC(C)(C)C(N)=O)C(C)C)C(C)C)ccc1OC
Out: 92.6

In: // query growth value for entry COc1ccc(/C=C/C(=O)c2cc3c(N)c(C(=O)Nc4ccc(OC)cc4)sc3nc2C)cc1
Out: 45.2

In: Look up growth: Cn1ccnc1C(=O)/C=C/c1ccc(C(=O)Nc2ccc(F)cc2)cc1
Out: 26.6

----------
system: RPMI-8226 leukemia; experiment: NCI-60 one-dose screen, 48 h; settings: 10 µM unless noted
Compounds without any hit were thinned out: in the full panel of roughly 83,000, 20% have a hit. Calls of active or inactive are those of the source. The calls were made as follows: active = growth percent below 10; inactive = the rest.
Please reply with one of these outcomes: active, inactive

Some solved entries appear below for comparison.
>  <molecule.smiles>
Cn1cc(/C=C2/C(=O)Nc3ccccc32)c2ccccc21

>  <target.desc>
RPMI-8226 leukemia

>  <label.value>
inactive

$$$$
>  <molecule.smiles>
O=C1N[C@@H]2[C@@H](O)[C@@H](O)[C@H](O)C[C@H]2c2cc3c(c(O)c21)OCCO3

>  <target.desc>
RPMI-8226 leukemia

>  <label.value>
active

$$$$
>  <molecule.smiles>
CCOC(=O)Cn1c(=O)c2c3ccccc3n(C)c2n2nnc(-c3ccccc3)c12

>  <target.desc>
RPMI-8226 leukemia

>  <label.value>
inactive

$$$$

Please find the next molecule below.
In: Could you please tell me the result logged for CCN(CC)CCN(CCN(CC)CC)c1ccccc1 in this assay?
Out: inactive

----------
tested on: EKVX NSCLC; experiment: NCI-60 one-dose screen, 48 h (100 = growth as untreated, 0 = no growth, -100 = all killed); details: 10 µM unless noted
This is part of a sample that, as a whole, favours compounds with a hit. Of some 83,000 tested, about 20% had one in any assay. The source made the active and inactive calls. Rule for the calls: active = growth percent below 10; inactive = the rest.
// growth lookup, one value per entry

In: Looking for the measured growth of CC1=CCC[C@@H]2C1(C)CC[C@H](C)[C@@]2(C)CC1=CC(=O)C(SC(C)(C)C)=CC1=O (stereo partly specified) , can you help?
Out: 70.7% (inactive)

In: Return reported growth; argument: Fc1ccc(CNc2c3ccccc3nc3ccccc23)cc1
Out: 35.6% (inactive)

In: So what does the record say about growth for O=C(Nc1ccccc1)c1sc(-c2ccccc2)cc1O ?
Out: 86.7% (inactive)

----------
growth values by entry
tested on: HCT-15 colon; assay: NCI-60 one-dose screen, 48 h (100 = growth as untreated, 0 = no growth, -100 = all killed); settings: 10 µM unless noted
This is part of a sample that, as a whole, favours compounds with a hit. Of some 83,000 tested, about 20% had one in any assay. The source made the active and inactive calls. Rule for the calls: active = growth percent below 10; inactive = the rest.

>  <compound>
COc1cc2cc(NCc3ccc(OC(F)F)cc3)nc(C)c2cc1OC

>  <growth>
59.9% (inactive)

$$$$
>  <compound>
C#Cc1cccc(Oc2ccc(NC(=O)CCl)cc2)c1

>  <growth>
-29.8% [8.25 µM] (active)

$$$$
>  <compound>
O=C1OCC2=C1C(c1cccc(C(F)(F)F)c1)c1cc3c(cc1N2CCO)OCO3 (stereo not given)

>  <growth>
25.2% (inactive)

$$$$
>  <compound>
CC(C)c1ccc(C(=O)Nc2sc3cc(O)ccc3c2C#N)cc1

>  <growth>
18.9% (inactive)

$$$$

In: Can you share its growth? I mean this compound: CN1CCCc2cc(/C=C3/SC(=S)N(CCc4ccc(O)cc4)C3=O)ccc21
Out: 56.7% (inactive)

In: Which value of growth has been reported for Cc1ccccc1OCC(O)COc1ccccc1C in the records?
Out: 79.1% (inactive)

In: May I ask what growth has been recorded for CCOC(=O)C1=C(C)N=C2SC=C(c3ccccc3)N2[C@H]1c1cn[nH]c1-c1ccc(Cl)cc1 ?
Out: 24.6% (inactive)

In: Given C=CCCC(=O)N1C=CC(=O)[C@H](O)[C@@H]1/C=C/c1ccccc1 , state its recorded growth.
Out: 36.5% [100 µM] (inactive)

In: growth for CC/C(Cc1ccccc1)=C(\c1ccc(OCCN2CCCCCC2)cc1)c1ccc(OC(=O)NCc2ccccc2)cc1 ?
Out: 9.25% (active)

----------
system: MOLT-4 leukemia; experiment: NCI-60 one-dose screen, 48 h (100 = growth as untreated, 0 = no growth, -100 = all killed); conditions: 10 µM unless noted
The panel holds about 83,000 compounds, 20% with a hit somewhere; the sample as a whole holds those more often.
Each entry below lists one item and its recorded growth value.
Kindly provide the numeric value in % only, without the unit symbol.

Reference set (10 entries):
>  <compound>
O=C(Nc1nc(C(=O)N2CCN(C(c3ccccc3)c3ccccc3)CC2)cs1)c1ccc(NC2CCCCC2)c([N+](=O)[O-])c1

>  <readout.kind>
growth

>  <reported.measurement>
77.9

$$$$
>  <compound>
CN(C)c1ccc(/C=C/C(=O)c2ccccc2)cc1

>  <readout.kind>
growth

>  <reported.measurement>
76.3

$$$$
>  <compound>
C/C(=C(/c1ccc(Cl)cc1)c1ccc(OCCCN(C)C)cc1)c1ccc(Cl)cc1

>  <readout.kind>
growth

>  <reported.measurement>
71.7

$$$$
>  <compound>
COc1cc(C(=O)C(=O)c2cc(OC)c(O)c(OC)c2)cc(OC)c1O

>  <readout.kind>
growth

>  <reported.measurement>
108

$$$$
>  <compound>
COc1ccc2cc(-c3cnc4nonc4n3)ccc2c1

>  <readout.kind>
growth

>  <reported.measurement>
6.87

$$$$
>  <compound>
Fc1ccc(COc2ccc(Nc3ncnc4sc5c(c34)CCCC5)cc2)cc1

>  <readout.kind>
growth

>  <reported.measurement>
87.4

$$$$
>  <compound>
Cn1cc(C(=O)c2nc(-c3c[nH]c4ccc(Br)cc34)no2)c2cc(Br)ccc21

>  <readout.kind>
growth

>  <reported.measurement>
85

$$$$
>  <compound>
COc1ccc(-c2cc(C(=O)N3N=C(c4ccc(N)cc4)CC3c3ccccc3)c3ccccc3n2)cc1 (stereo not given)

>  <readout.kind>
growth

>  <reported.measurement>
35.2

$$$$
>  <compound>
Cn1cc(-c2ccc3cc(-c4ccc(CC(=O)Nc5cc(C(C)(C)C)on5)cc4)cnc3c2)cn1

>  <readout.kind>
growth

>  <reported.measurement>
4.87

$$$$
>  <compound>
CN1CCN(c2ccc3c(c2)nc(NNC(=O)c2cnccn2)c2cccn23)CC1

>  <readout.kind>
growth

>  <reported.measurement>
13.9

$$$$

In: Could you tell me which growth is on file for C=C1C(=O)O[C@H]2[C@H]1CC/C(COC(=O)/C=C\C(=O)NCc1ccc(Cn3c(=O)sn(-c4ccccc4)c3=O)cc1)=C\CC[C@@]1(C)O[C@@H]21 ?
Out: 25.3

In: Endpoint output: growth of Cc1ccc2nc(Cl)c(Cn3nnnc3SCc3ccccc3)cc2c1 . Value?
Out: 97.8
